TESTED TARGET: T1, recombinant human 4R0N tau (human, UniProt P10636 2-758)
T1 construct: also called recombinant 4R0N human tau; P10636-6
T1 sequence (P10636 other isoform, or with tags, fused parts or gaps limits assumed): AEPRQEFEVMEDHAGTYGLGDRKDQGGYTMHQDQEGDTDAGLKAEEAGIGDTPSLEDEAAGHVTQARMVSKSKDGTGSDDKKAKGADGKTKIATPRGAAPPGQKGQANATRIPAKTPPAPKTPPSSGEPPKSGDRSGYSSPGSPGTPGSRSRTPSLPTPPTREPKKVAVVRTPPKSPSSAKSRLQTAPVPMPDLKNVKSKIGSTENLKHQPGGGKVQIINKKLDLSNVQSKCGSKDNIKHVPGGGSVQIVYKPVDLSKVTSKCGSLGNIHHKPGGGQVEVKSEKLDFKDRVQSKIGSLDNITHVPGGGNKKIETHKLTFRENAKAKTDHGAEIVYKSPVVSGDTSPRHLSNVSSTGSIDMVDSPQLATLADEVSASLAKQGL
TEST METHOD NOTES: SPR Biacore; antibody captured by anti-mouse antibody; tau as analyte; global 1:1 fit
MEASURE: kon
Answer as a quantity: numeral, then unit.

For the binder mouse 17C12 antibody (antibody, mouse IgG2a, V domains shown, also called m17C12) VH: KIQLQQSGAELVRPGASVKLSCTASAFNIKDDYMNWVKQRPERGLEWIGWIDPENGDTKYASKFQGKATMTADTSSNTAYLQLSSLTSEDTAVYYCTTSNGWGQGTLVTVSA VL: DVVMTQTPLTLSVTIGQPASISCTSSQSLLHSNRKTYLHWLLQRPGQSPKLLIYLVSKLESGVPDRFSGSGSGTDFTLKISRVEAEDLGVYYCLQTTHFPRTFGGGTKLEIK , what kon is on record?
4.03e+06 M⁻¹ s⁻¹

For the binder mouse 14H3 antibody (antibody, mouse IgG2a, V domains shown, also called m14H3) VH: QVTLKESGPGILQPSQTLSLTCSFSGFSLSTYGMGVGWIRQPSGKGLEWLANIWWDDIKYYNAALKSRLTISKDTSKNQVFLKIASVDTADTATYYCARNVDYWGQGTTLTVSS VL: DVVMTQTPLSLPVSLGDQASISCRSSQSLVHSNGNTFLHWYLQKPGQSPKLLIYKVSNRFSGVPDRFSGSGSGTDFTLKISRVEAEDLGVYFCSQSTLVPWTFGGGTKLEIK , what kon is on record?
7.6e+06 M⁻¹ s⁻¹

For the binder mouse 9F5 antibody (antibody, mouse IgG1, V domains shown, also called m9F5; murine 9F5) VH: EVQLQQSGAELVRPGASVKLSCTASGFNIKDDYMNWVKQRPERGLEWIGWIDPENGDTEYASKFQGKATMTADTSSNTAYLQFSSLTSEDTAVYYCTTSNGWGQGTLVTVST VL: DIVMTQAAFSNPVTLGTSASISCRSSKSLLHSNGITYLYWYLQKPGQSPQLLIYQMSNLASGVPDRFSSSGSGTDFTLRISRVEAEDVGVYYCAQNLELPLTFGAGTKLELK , what kon is on record?
6.39e+06 M⁻¹ s⁻¹

Recorded values, source patent US20220275067A1.
